Reference source for all entries: patent US10010545B1

System: Pseudomonas aeruginosa
Assay: Growth testing against ESKAPE pathogens: Pseudomonas aeruginosa
Assay type: cell-based
Parameters: key: Growth; X: No Growth
Conditions: 7 μg/ml
METRIC: Activity against Pseudomonas aeruginosa (growth observed)

| MOLECULE | MEASURED_ON | RESULT |
| --- | --- | --- |
| CCC(C)SN1C(=O)C(OC(=O)c2cn(C3CC3)c3cc(N4CCN(C(C)=O)CC4)c(F)cc3c2=O)C1c1ccccc1Cl (stereo not drawn) | Pseudomonas aeruginosa | G |
| CCCCCC(=O)N1CCN(c2cc3c(cc2F)c(=O)c(C(=O)OC2C(=O)N(SC(C)CC)C2c2ccccc2Cl)cn3C2CC2)CC1 (stereo not drawn) | Pseudomonas aeruginosa | G |
| CCCCCCC(=O)N1CCN(c2cc3c(cc2F)c(=O)c(C(=O)OC2C(=O)N(SC(C)CC)C2c2ccccc2Cl)cn3C2CC2)CC1 (stereo not drawn) | Pseudomonas aeruginosa | G |

---

System: Pseudomonas aeruginosa
Assay: Growth testing against ESKAPE pathogens: Pseudomonas aeruginosa
Assay type: cell-based
Design: key: Growth; X: No Growth
Settings: 4 μg/ml
METRIC: Activity against Pseudomonas aeruginosa (growth observed)

Would you please look over these solved cases?
| COMPOUND | RESULT |
| --- | --- |
| CCCCCC(=O)N1CCN(c2cc3c(cc2F)c(=O)c(C(=O)OC2C(=O)N(SC)C2c2ccccc2)cn3C2CC2)CC1 (stereo not drawn) | G |
| CCCCCC(=O)N1CCN(c2cc3c(cc2F)c(=O)c(C(=O)OC2C(=O)N(SC(C)CC)C2c2ccccc2Cl)cn3C2CC2)CC1 (stereo not drawn) | G |
| CCCCCC(=O)N1CCN(c2cc3c(cc2F)c(=O)c(C(=O)OC2C(=O)N(c4ccc(OC)cc4)C2c2ccccc2Cl)cn3C2CC2)CC1 (stereo not drawn) | G |
| CCCCCCC(=O)N1CCN(c2cc3c(cc2F)c(=O)c(C(=O)OC2C(=O)N(SC)C2c2ccccc2)cn3C2CC2)CC1 (stereo not drawn) | G |
| CCC(C)SN1C(=O)C(OC(=O)c2cn(C3CC3)c3cc(N4CCN(C(C)=O)CC4)c(F)cc3c2=O)C1c1ccccc1Cl (stereo not drawn) | G |

Pending compound:
Ask: I am curious: what Activity against Pseudomonas aeruginosa (growth observed) value has been reported for CCCCCCC(=O)N1CCN(c2cc3c(cc2F)c(=O)c(C(=O)OC2C(=O)N(SC(C)CC)C2c2ccccc2Cl)cn3C2CC2)CC1 (stereo not drawn) ?
Result: G

---

Tested on: Staphylococcus aureus
Experiment: Growth testing against ESKAPE pathogens: Staphylococcus aureus
Assay type: cell-based
Set-up: key: Growth; X: No Growth
Settings: 8 μg/ml
METRIC: Activity against Staphylococcus aureus (growth observed)

Would you please look over these solved cases?
| COMPOUND | RESULT |
| --- | --- |
| CCCCCCC(=O)N1CCN(c2cc3c(cc2F)c(=O)c(C(=O)OC2C(=O)N(SC)C2c2ccccc2)cn3C2CC2)CC1 (stereo not drawn) | G |
| CCCCCC(=O)N1CCN(c2cc3c(cc2F)c(=O)c(C(=O)OC2C(=O)N(SC)C2c2ccccc2)cn3C2CC2)CC1 (stereo not drawn) | G |
| CCCCCC(=O)N1CCN(c2cc3c(cc2F)c(=O)c(C(=O)OC2C(=O)N(c4ccc(OC)cc4)C2c2ccccc2Cl)cn3C2CC2)CC1 (stereo not drawn) | G |
| CCCCCC(=O)N1CCN(c2cc3c(cc2F)c(=O)c(C(=O)OC2C(=O)N(SC(C)CC)C2c2ccccc2Cl)cn3C2CC2)CC1 (stereo not drawn) | G |
| CCCCCCC(=O)N1CCN(c2cc3c(cc2F)c(=O)c(C(=O)OC2C(=O)N(SC(C)CC)C2c2ccccc2Cl)cn3C2CC2)CC1 (stereo not drawn) | G |

Pending compound:
Ask: I am curious: what Activity against Staphylococcus aureus (growth observed) value has been reported for CCC(C)SN1C(=O)C(OC(=O)c2cn(C3CC3)c3cc(N4CCN(C(C)=O)CC4)c(F)cc3c2=O)C1c1ccccc1Cl (stereo not drawn) ?
Result: X
